Recorded IC50 of scFv (pM) in BaF3-IL-22 proliferation assay by entry
Target: T1, human IL-22 (human, UniProt Q9GZX6 34-179)
T1 sequence: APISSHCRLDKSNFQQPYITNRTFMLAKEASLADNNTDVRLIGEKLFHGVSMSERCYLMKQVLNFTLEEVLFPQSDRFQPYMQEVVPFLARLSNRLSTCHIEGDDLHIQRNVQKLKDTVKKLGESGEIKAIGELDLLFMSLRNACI
Experiment: cell-based or functional assay
Answer format: numeric, pM implied, no suffix.

>>> reported("062A09 scFv (non-germlined) (scFv) scFv: QVQLVESGAEVKKPGASVKVSCKASGYTFTSYGISWVRQAPGQGLEWMGWVSAYTGNTNYAQKFQGRVTMTTDTSTSTAYMELRGLRSDDTAVYYCARDRGYYDAYDIWGQGTLVTVSSGGGGSGGGGSGGGGSDIQMTQSPSTLSASIGDRVTITCRASEGIYHWLAWYQQKPGKAPKLLIYKASSLASGAPSRFSGSGFGTDFTLTISSLQPDDFATYYCQQMGEYNATIGGGTKLEIKRAAAH")
267

Please look at the following binder next.
# get_value(readout='IC50 of scFv (pM) in BaF3-IL-22 proliferation assay', item= 355E04 scFv (non-germlined) (scFv) scFv: QVQLVQSGAEVKKPGASVKVSCKASGYTFTHYYMHWVRQAPGQGLEWVGWINPYTGGAFYAQKFQGRVTMTRDTSINTAYMELSRLGSDDTAVYYCAREPEKFDSPNAEIWGRGTMVTISSEGGGSGGGGSGGSGSAQAVLTQPSSVSGAPGQRVTISCTGSSSNIGAGYGVHWYQQLPGTAPKLLIYGNSNRPSGVPDRFSGSKSGTSASLAITGLQAEDEADYYCQSYDSSLSGYVFGTGTQLTVLSA )
192
